target or system: Calcium-activated potassium channel subunit alpha-1 (Rattus norvegicus) (UniProt Q62976)
Sequence (Q62976 whole entry): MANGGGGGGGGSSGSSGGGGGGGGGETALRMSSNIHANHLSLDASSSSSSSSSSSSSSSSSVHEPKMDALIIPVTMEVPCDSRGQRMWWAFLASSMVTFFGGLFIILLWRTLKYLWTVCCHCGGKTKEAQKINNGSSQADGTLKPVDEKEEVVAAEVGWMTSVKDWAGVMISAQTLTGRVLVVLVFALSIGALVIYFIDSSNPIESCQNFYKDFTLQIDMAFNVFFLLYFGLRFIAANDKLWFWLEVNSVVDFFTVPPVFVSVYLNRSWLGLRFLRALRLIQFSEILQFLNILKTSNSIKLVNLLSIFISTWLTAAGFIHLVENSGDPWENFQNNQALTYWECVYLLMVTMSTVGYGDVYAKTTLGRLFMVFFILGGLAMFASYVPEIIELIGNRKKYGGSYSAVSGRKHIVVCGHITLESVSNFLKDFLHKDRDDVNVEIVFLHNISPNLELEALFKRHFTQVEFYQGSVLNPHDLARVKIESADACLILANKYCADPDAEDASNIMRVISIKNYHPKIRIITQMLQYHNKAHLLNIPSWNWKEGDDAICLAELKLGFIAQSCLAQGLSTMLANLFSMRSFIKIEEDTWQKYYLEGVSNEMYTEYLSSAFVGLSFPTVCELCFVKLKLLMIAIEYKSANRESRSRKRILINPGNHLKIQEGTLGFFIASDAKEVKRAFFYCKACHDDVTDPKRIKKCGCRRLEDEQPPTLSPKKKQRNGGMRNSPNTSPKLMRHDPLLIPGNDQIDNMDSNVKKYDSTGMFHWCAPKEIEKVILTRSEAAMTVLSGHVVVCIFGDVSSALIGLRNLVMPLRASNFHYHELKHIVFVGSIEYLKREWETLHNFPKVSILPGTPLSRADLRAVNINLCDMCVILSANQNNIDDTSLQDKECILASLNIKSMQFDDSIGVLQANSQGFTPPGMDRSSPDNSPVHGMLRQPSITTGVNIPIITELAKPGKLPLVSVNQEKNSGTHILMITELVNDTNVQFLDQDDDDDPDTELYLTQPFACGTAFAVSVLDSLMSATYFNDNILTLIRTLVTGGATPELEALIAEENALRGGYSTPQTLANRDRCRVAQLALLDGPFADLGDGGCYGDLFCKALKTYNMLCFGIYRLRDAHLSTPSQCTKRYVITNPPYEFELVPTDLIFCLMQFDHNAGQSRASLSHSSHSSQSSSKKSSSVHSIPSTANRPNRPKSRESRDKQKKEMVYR
procedure summary: Activation of large-conductance calcium-activated potassium channel-mediated vasorelaxation in endothelium-denuded normotensive Wistar rat thoracic aorta assessed as potassium chloride-induced contractile tension relative to NS-1619
Type: tissue-based

compound	Emax
COc1ccc(Br)cc1C1CNc2cc(C(F)(F)F)ccc2S1 (configuration not stated)	< 25%
O=C1Nc2ccccc2SC1c1ccccc1 (configuration not stated)	42%
COc1c(Br)cc(Br)cc1C1Sc2ccc(C(F)(F)F)cc2NC1=O (configuration not stated)	75%
O=C1Nc2cc(C(F)(F)F)ccc2SC1c1ccccc1 (configuration not stated)	39%
O=C1Nc2cc(C(F)(F)F)ccc2SC1c1cc(Br)ccc1O (configuration not stated)	44%
COc1ccc(Br)cc1C1Sc2ccc(C(F)(F)F)cc2N(C)C1=O (configuration not stated)	67%
COc1ccc(Br)cc1C1Sc2ccccc2NC1=O (configuration not stated)	100%
COc1ccc(Br)cc1[C@@H](O)[C@H]1Sc2ccc(C(F)(F)F)cc2NC1=O (relative stereo)	70%
COc1ccccc1C1CNc2cc(C(F)(F)F)ccc2S1 (configuration not stated)	100%
COc1ccc(Br)cc1C1C(=O)Nc2cc(C(F)(F)F)ccc2[S+]1[O-] (configuration not stated)	34%
COc1ccc(Br)cc1C1Sc2ccc(C(F)(F)F)cc2NC1=O (configuration not stated)	77%
COc1ccc(Br)cc1C1Sc2ccc(C(F)(F)F)cc2NC1=S (configuration not stated)	26%
